- Tested on: Saccharomyces cerevisiae;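 note: PSI is a weighted mean of sequencing reads over stability bins, variants kept only with over 10 reads, mCherry proximal and sfGFP distal, peptide attached via GGGS linker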
- protocolDetails: protein stability index of tFT-peptide fusion (C-terminal peptide) (PSI (0-1 scale)); higher = more stable (slower turnover)
- conditionLabel: genetic background: wild type; temperature: 30 C
protein stability index vs 0.7: at or above is condition met, below is condition not met.

{"columns": ["constructSequence", "groupLabel"],
 "data": [
  ["CYRRCQAFLVLV", "condition not met"],
  ["PLSSILSPSSPA", "condition met"],
  ["VCAGGVFRLARG", "condition not met"],
  ["IHCFSVDLLVAR", "condition not met"],
  ["VGGGRFCGCLVV", "condition met"],
  ["TLPIWLRVLIFG", "condition not met"],
  ["CFFILSLMVVVI", "condition not met"],
  ["CCGHGVFSFFSL", "condition met"],
  ["HILESKKAGPGD", "condition not met"],
  ["GGGGLREGGRWE", "condition met"],
  ["LFGFILLGVSCC", "condition not met"],
  ["WKYRGVGGVGMG", "condition met"],
  ["QCIRLFCPLVSL", "condition not met"],
  ["VLAWVPNFALLP", "condition not met"]
]}
